B1: glmS ribozyme (parent)
chain: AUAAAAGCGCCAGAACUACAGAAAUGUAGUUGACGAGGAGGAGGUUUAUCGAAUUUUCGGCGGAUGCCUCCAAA

- Variants of: B1
- assay-info: self-cleavage kobs at 160 uM GlcN6P; higher = faster cleavage; RNA array
- assay-conditions: with glucosamine-6-phosphate
Fewer inactive variants are shown than the library holds.
value-kind: self-cleavage kobs at 160 uM GlcN6P

# get_value(readout='self-cleavage kobs at 160 uM GlcN6P', item= G37A G38U U55C ) < 1e-05 s⁻¹

# get_value(readout='self-cleavage kobs at 160 uM GlcN6P', item= U57C G60U ) < 1e-05 s⁻¹

# get_value(readout='self-cleavage kobs at 160 uM GlcN6P', item= G35A C67A ) < 1e-05 s⁻¹

# get_value(readout='self-cleavage kobs at 160 uM GlcN6P', item= G7A C8G ) < 1e-05 s⁻¹

# get_value(readout='self-cleavage kobs at 160 uM GlcN6P', item= G63U G66C ) < 1e-05 s⁻¹

# get_value(readout='self-cleavage kobs at 160 uM GlcN6P', item= A33C U69A ) < 1e-05 s⁻¹

# get_value(readout='self-cleavage kobs at 160 uM GlcN6P', item= A15G G35U ) < 1e-05 s⁻¹

# get_value(readout='self-cleavage kobs at 160 uM GlcN6P', item= G41C A52U ) < 1e-05 s⁻¹

# get_value(readout='self-cleavage kobs at 160 uM GlcN6P', item= A36G A48C ) < 1e-05 s⁻¹

# get_value(readout='self-cleavage kobs at 160 uM GlcN6P', item= G40U G63C ) < 1e-05 s⁻¹

# get_value(readout='self-cleavage kobs at 160 uM GlcN6P', item= A14G C34G ) < 1e-05 s⁻¹

# get_value(readout='self-cleavage kobs at 160 uM GlcN6P', item= G40A A42C A48G ) < 1e-05 s⁻¹

# get_value(readout='self-cleavage kobs at 160 uM GlcN6P', item= G38C A39G ) < 1e-05 s⁻¹

# get_value(readout='self-cleavage kobs at 160 uM GlcN6P', item= G41U C68A ) < 1e-05 s⁻¹

# get_value(readout='self-cleavage kobs at 160 uM GlcN6P', item= U31C G62U G66C ) < 1e-05 s⁻¹

# get_value(readout='self-cleavage kobs at 160 uM GlcN6P', item= U30A A64G ) 0.000656 s⁻¹

# get_value(readout='self-cleavage kobs at 160 uM GlcN6P', item= C16U U65A U69A ) 3.44e-05 s⁻¹

# get_value(readout='self-cleavage kobs at 160 uM GlcN6P', item= C58G A64C ) < 1e-05 s⁻¹

# get_value(readout='self-cleavage kobs at 160 uM GlcN6P', item= U31C G63C ) < 1e-05 s⁻¹

# get_value(readout='self-cleavage kobs at 160 uM GlcN6P', item= C58A G60A ) < 1e-05 s⁻¹

# get_value(readout='self-cleavage kobs at 160 uM GlcN6P', item= U46G G66U ) 3.38e-05 s⁻¹

# get_value(readout='self-cleavage kobs at 160 uM GlcN6P', item= G29C C71G ) 5.06e-05 s⁻¹
